Please go through the items and note down their growth inhibition.
Test: growth inhibitors of wild-type E. coli, primary screen, strain BW25113, expanded library, OD600 (AID 710);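 note: growth measured after 20 h incubation at 37 °C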
Details: OD600 absorbance, at 100 µM, hits give high values
The whole screen tested about 98,000 compounds, of which about 150 (0.15%) were called active. This is one part of a sample in which actives are shown more often than they occur.
Form entry: value (%) — number only.

Query :: Answer with the recorded growth inhibition of COc1ccc(NC(=O)CC2COc3ccccc3O2)c(OC)c1 (configuration not stated) only.
Result :: 7

Query :: Answer with the recorded growth inhibition of "c1ccc(COc2ccccc2CNCc2cccnc2)cc1" only.
Result :: 3

Query :: Answer with the recorded growth inhibition of "CCn1c(Cc2cccs2)nnc1SCC(=O)c1ccc(C)cc1" only.
Result :: -2

Query :: Answer with the recorded growth inhibition of "CSC1=N/C(=C\c2ccc3c(c2)OCO3)C(=O)S1" only.
Result :: -11

Query :: Answer with the recorded growth inhibition of "C=CCn1c(-c2ccc3[nH]c(C)c(C)c3c2)n[nH]c1=S" only.
Result :: 2

Query :: Answer with the recorded growth inhibition of "CC(C)c1ccc(C(=O)NCCCc2ccccc2)cc1" only.
Result :: 1

Query :: Answer with the recorded growth inhibition of "c1ccc2c(C[n+]3csc4ccccc43)cccc2c1" only.
Result :: -14

Query :: Answer with the recorded growth inhibition of "CCOC(=O)C(=CNc1cccc(C)n1)C(=O)OCC" only.
Result :: -6

Query :: Answer with the recorded growth inhibition of "CCC(=O)N(Cc1ccccc1)c1ccccn1" only.
Result :: -3

Query :: Answer with the recorded growth inhibition of "N#C/C(=C1/CCCN1)c1ccccn1" only.
Result :: 3

Query :: Answer with the recorded growth inhibition of "COC(=O)c1ccc(NC(=O)c2ccccc2NS(=O)(=O)c2ccccc2)cc1" only.
Result :: 4

Query :: Answer with the recorded growth inhibition of CSCCC(C(=O)NC1=NCCS1)N1C(=O)c2ccccc2C1=O (configuration not stated) only.
Result :: -1

Hey, just so you know, these numbers are from PubChem BioAssay AID710.
